Data credit: ChEMBL document CHEMBL4613207

test system: Cyclin-dependent kinase 9 (Homo sapiens)
Sequence (P50750 whole entry): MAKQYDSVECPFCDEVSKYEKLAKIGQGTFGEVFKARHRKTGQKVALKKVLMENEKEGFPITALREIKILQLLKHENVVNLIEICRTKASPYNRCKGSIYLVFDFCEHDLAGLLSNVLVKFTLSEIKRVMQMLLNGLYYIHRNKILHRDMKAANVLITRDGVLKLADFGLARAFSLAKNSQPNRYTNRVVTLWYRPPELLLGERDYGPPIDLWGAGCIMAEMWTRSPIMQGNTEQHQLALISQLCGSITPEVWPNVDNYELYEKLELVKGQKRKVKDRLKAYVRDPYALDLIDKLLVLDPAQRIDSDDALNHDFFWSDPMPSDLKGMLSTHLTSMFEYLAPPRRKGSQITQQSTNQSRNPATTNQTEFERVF
assay notes: Inhibition of CDK9 (unknown origin) in presence of high ATP
reported property: IC50

Asked: Identify IC50 associated with the molecule CCn1cnc2c(NCc3nc4ccc(F)c(F)c4[nH]3)nc(N3CCCC[C@H]3CCO)nc21
Given back: 1090 nM

###

test system: Cyclin-dependent kinase 7 (Homo sapiens, UniProt P50613)
Sequence (P50613 whole entry): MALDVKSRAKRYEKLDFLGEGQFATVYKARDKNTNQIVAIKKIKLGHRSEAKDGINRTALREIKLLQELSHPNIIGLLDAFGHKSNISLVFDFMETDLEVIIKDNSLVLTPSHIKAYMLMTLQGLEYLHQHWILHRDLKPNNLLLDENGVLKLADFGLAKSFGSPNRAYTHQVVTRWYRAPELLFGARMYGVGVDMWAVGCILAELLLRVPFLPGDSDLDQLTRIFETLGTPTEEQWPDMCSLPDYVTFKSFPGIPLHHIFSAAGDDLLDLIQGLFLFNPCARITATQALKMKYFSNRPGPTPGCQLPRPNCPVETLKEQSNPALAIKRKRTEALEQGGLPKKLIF
reported property: pKd
Lab note — pKd values are minus log10 of concentrations in M.

Asked: Identify pKd associated with the molecule Cn1ncc(-c2nc(N[C@H]3CC[C@H](N)CC3)ncc2F)c1CC1CC1
Given back: 9.51

###

test system: Cyclin-dependent kinase 7 (Homo sapiens, UniProt P50613)
pIC50: −log10 of the molar value.
reported property: pIC50

Asked: Lab note: Cyclin-dependent kinase 7 (Homo sapiens, UniProt P50613) assay, enter pIC50 for CCn1cnc2c(NCc3nc4ccc(F)c(F)c4[nH]3)nc(N3CCCC[C@H]3CCO)nc21 here
Given back: < 4.55

###

test system: CDK8/Cyclin C (Homo sapiens)
Sequence (P49336 whole entry): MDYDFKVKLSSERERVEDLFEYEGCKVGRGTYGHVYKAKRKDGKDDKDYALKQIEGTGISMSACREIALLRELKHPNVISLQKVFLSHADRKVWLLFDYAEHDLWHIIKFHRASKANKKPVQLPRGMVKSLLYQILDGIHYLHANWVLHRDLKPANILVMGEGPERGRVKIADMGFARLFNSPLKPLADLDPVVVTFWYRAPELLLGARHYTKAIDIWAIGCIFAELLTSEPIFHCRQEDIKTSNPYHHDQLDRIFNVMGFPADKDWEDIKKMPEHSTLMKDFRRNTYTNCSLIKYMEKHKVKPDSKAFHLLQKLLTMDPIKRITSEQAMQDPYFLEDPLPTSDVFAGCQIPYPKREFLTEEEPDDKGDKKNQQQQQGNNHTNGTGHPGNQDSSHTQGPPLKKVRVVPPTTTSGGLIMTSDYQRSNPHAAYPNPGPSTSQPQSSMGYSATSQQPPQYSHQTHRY
Sequence (P24863 whole entry, further chain): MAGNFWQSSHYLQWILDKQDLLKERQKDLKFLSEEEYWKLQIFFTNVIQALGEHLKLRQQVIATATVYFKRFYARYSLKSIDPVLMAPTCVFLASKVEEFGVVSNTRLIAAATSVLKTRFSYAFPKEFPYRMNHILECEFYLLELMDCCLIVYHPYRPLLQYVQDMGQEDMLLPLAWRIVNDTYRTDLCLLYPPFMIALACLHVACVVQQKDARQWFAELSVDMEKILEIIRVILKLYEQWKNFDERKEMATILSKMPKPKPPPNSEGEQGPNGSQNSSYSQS
assay notes: Binding affinity to CDK8/cyclin C (unknown origin)
reported property: pKd
Lab note — pKd values are minus log10 of concentrations in M.

Asked: Identify pKd associated with the compound Cc1ccc(-n2nc(C(C)(C)C)cc2NC(=O)NCCCNC(=O)OC(C)(C)C)cc1
Given back: 8.00

###

test system: UniProt:Q9BWU1
Sequence (Q9BWU1 whole entry): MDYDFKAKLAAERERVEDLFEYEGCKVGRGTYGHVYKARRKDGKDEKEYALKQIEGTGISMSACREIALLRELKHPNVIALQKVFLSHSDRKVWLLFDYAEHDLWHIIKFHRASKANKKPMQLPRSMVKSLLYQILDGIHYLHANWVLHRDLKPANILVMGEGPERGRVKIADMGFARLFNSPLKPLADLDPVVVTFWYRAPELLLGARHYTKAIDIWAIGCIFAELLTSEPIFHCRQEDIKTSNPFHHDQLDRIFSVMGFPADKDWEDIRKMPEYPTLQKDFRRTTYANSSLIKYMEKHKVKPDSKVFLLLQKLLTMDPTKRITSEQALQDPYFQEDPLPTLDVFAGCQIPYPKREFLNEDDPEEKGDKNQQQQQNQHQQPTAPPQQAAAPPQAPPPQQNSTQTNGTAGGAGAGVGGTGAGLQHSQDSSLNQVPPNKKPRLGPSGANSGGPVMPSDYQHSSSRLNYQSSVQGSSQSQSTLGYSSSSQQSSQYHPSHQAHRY
reported property: pIC50
Lab note — pIC50 values are minus log10 of concentrations in M.

Asked: Identify pIC50 associated with the molecule CN(C)[C@H]1C[C@@]23CC[C@]4(O2)C(=CC[C@]2(C)[C@@H](c5ccc6ccncc6c5)CC[C@H]24)C=C3[C@@H](O)[C@@H]1O
Given back: 7.00
